Molecular target: AGX1/UAP1 (Homo sapiens)
Construct: full-length, cDNA from HepG2 cells, pET30A(+) in E. coli HMS174(DE3), Ni-NTA purified
Sequence (Q16222 1-505 isoform Q16222-2): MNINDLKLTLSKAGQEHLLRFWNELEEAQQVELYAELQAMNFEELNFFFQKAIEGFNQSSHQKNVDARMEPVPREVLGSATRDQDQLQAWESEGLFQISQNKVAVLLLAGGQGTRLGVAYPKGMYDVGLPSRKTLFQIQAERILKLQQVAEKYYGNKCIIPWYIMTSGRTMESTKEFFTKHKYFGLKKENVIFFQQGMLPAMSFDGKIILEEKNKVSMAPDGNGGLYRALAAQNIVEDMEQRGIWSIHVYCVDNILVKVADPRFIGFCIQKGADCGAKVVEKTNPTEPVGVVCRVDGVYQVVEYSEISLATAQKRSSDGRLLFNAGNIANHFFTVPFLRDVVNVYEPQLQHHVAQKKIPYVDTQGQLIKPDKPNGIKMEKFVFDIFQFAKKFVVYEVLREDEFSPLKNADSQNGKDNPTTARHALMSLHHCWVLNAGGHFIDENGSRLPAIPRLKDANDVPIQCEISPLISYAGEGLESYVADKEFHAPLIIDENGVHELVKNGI
Assay: enzyme inhibition assay
Details: one value stated for GALT, UGP2 and AGX1/UAP1 together
Measurement type: pIC50
For clarity, pIC50 is expressed as the negative log10 of concentration in mol/L.

The measured pIC50 associated with "CN1C(=O)C(C)(C)c2cc(-c3ccnc(N)n3)ccc21" reads 4.52

###

Target: GALT (Homo sapiens)
Construct: recombinant, expressed in E. coli HMS174(DE3), Ni-NTA purified; plasmid from earlier work
Sequence (P07902 whole entry): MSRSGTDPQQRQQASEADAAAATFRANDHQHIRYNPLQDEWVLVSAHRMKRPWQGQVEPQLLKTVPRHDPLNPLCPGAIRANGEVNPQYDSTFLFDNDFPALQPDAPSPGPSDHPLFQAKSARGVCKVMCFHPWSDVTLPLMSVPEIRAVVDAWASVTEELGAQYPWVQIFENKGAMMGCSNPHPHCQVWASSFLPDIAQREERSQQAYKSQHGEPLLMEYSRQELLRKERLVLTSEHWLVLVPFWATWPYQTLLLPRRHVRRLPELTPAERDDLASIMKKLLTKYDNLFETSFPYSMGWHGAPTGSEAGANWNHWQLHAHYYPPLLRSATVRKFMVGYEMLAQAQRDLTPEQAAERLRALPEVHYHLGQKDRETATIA
Experiment: initial velocities, Lineweaver-Burk
Measurement type: Ki

Form: compound = "CN1C(=O)C(C)(C)c2cc(-c3ccnc(N)n3)ccc21" ; Ki = ~30 µM
